System: HCC-2998 colon
Assay method text: NCI tumour cell line growth inhibition, 48 h
Value kind: TGI

// known answers, use as guide
[
  {
    "Molecule": "O=c1cc(-c2ccccc2)[nH]c2c(S)cccc12",
    "TGI": "> 100 µM"
  },
  {
    "Molecule": "CC(C)C1=C(Cc2ccccc2)C(=O)O/C1=C\\c1cc(Cl)c(O)c(Cl)c1",
    "TGI": "42.3 µM"
  },
  {
    "Molecule": "Cc1ccc(NC(=O)C2C(=O)N(c3ccc(C)c(C)c3)C(=O)C2N=N)cc1C (centres undefined)",
    "TGI": "> 100 µM"
  },
  {
    "Molecule": "CCSc1[nH]c(Nc2nc(-c3ccccc3)n(-c3ccccc3)n2)c(C(N)=O)c1C(N)=O",
    "TGI": "> 10 µM"
  },
  {
    "Molecule": "O=[N+]([O-])c1ccc(S(=O)(=O)N=Ic2ccccc2)cc1",
    "TGI": "> 100 µM"
  }
]

Query :: Can you look up the measured TGI of Oc1cc(O)c2c(c1)OC(c1ccc(O)c(O)c1)C(OC1(c3cc(O)c(O)c(O)c3)Oc3cc(O)cc(O)c3C(O)C1O)C2 (centres undefined) for me?
Result :: > 100 µM

Query :: Same again, this time with "COc1ccc(-c2c(C#N)c(O)n(NS(=O)(=O)c3ccc(C)cc3)c(=O)c2C#N)cc1"
Result :: > 100 µM

Query :: Consider next the molecule "Cc1cc(OCc2nnc3n2N=C(c2cc(F)c(Cl)cc2Cl)/C(=C/c2ccc(Cl)cc2)S3)ccc1Cl" in the same way.
Result :: 40.3 µM

Query :: // next record Cc1cccc(C(C)C)c1NC(=O)CC1Sc2ccccc2NC1=O (centres undefined)
Result :: > 100 µM

====

System: UACC-257 melanoma
Assay method text: NCI tumour cell line growth inhibition, 48 h
Value kind: GI50

Some solved cases for reference:
[
  {
    "Compound": "Cc1nc2cnc(N)c(C#Cc3cncc(C(=O)Nc4ccc(CN5CCN(C)CC5)c(C(F)(F)F)c4)c3)c2nc1C",
    "Study target": "UACC-257 melanoma",
    "GI50": "0.189 µM"
  },
  {
    "Compound": "NS(=O)(=O)c1ccc(N(/C=C/C(=O)C(F)(F)F)CC(=O)c2ccc(Cl)cc2)cc1",
    "Study target": "UACC-257 melanoma",
    "GI50": "50.9 µM"
  },
  {
    "Compound": "COc1ccc(-c2oc(=O)ccc2-c2cc(OC)c(OC)c(OC)c2)cc1F",
    "Study target": "UACC-257 melanoma",
    "GI50": "31.5 µM"
  },
  {
    "Compound": "CC12CCC3C(CCC4=CC(O)CCC43C=O)C1(O)CCC2c1ccc(=O)oc1 (stereo not drawn)",
    "Study target": "UACC-257 melanoma",
    "GI50": "0.05 µM"
  },
  {
    "Compound": "Nc1nccc2c1ccn2-c1ccc(NC(=O)c2ccc(N3CCOCC3)c(C(F)(F)F)c2)cc1",
    "Study target": "UACC-257 melanoma",
    "GI50": "2.15 µM"
  },
  {
    "Compound": "O=c1[nH]c(=O)n(C2CC(O)C(CO)O2)cc1CO (stereo not drawn)",
    "Study target": "UACC-257 melanoma",
    "GI50": "> 100 µM"
  }
]

Attention now shifts to the item below.
Query :: Field: GI50 (UACC-257 melanoma). Entry: "Cc1csc(Nc2nc(-c3cccc(Br)c3)nc(C(Cl)(Cl)Cl)n2)n1"
Result :: 3.34 µM

====

Test system: HCT-15 colon
Assay method text: NCI tumour cell line growth inhibition, 48 h
GI50 reference

Sample records with GI50:
[
  {
    "Molecule": "COc1ccccc1N1CCN(CCCn2c(=O)c3c(OC)nc(C)cc3c(=O)n2-c2ccccc2)CC1",
    "Study target": "HCT-15 colon",
    "GI50": "> 100 µM"
  },
  {
    "Molecule": "Cc1csc(Nc2nc(-c3cccc(Br)c3)nc(C(Cl)(Cl)Cl)n2)n1",
    "Study target": "HCT-15 colon",
    "GI50": "4.95 µM"
  }
]

Now examine the next entry.
Query :: Tell me the measured GI50 of C=CCCCCCCCCCCC1(O)C=CC2=[N+](CCCCCN=C(N)N)CCCN21 (stereo not drawn) , please.
Result :: 4.87 µM

====

Tested on: OVCAR-8 ovarian
Assay method text: NCI tumour cell line growth inhibition, 48 h
Value kind: TGI

Observe how each entry below is paired with its result.
[
  {
    "Compound": "CCSc1[nH]c(Nc2nc(-c3ccccc3)n(-c3ccccc3)n2)c(C(N)=O)c1C(N)=O",
    "Value kind": "TGI",
    "Data value": "> 10 µM"
  },
  {
    "Compound": "C[C@@H]1CCC2[C@@H](C)[C@@H](OCCO[C@H]3OC4O[C@@]5(C)CCC6[C@H](C)CCC([C@H]3C)[C@@]46OO5)OC3O[C@@]4(C)CCC1[C@]32OO4 (some centres undefined)",
    "Value kind": "TGI",
    "Data value": "> 78.2 µM"
  },
  {
    "Compound": "CSc1nncc2[nH]c(C)nc12",
    "Value kind": "TGI",
    "Data value": "> 100 µM"
  },
  {
    "Compound": "CCOC(=O)c1ccc(C(=O)/C(C#N)=C2\\CCCN2C)[nH]1",
    "Value kind": "TGI",
    "Data value": "> 100 µM"
  },
  {
    "Compound": "COc1ccc(N2C(=O)CS(=O)(=O)C2c2cccc(Oc3ccccc3)c2)cc1 (centres undefined)",
    "Value kind": "TGI",
    "Data value": "95.7 µM"
  }
]

Query :: Quick check: TGI of CC(C)=CCc1cc(O)cc2c1OC(C=C(C)C)C1=C2C(=O)C2=C(NCCS2(=O)=O)C1=O (centres undefined) ?
Result :: 8.71 µM

Query :: Param item: "CCCCCCNC(=O)c1nc(-c2ccccc2)oc1Cc1ccc(OP(=O)(O)O)cc1"
Result :: 45.6 µM

Query :: // query: "Cc1ccc(Cl)cc1Nc1nc(C(F)(F)F)ccc1C(=O)N1CCN(c2cccc(Cl)c2)CC1"
Result :: > 100 µM

Query :: Quick one: CC1(C)OC2C(O)CN3CCS[C@H]3C2O1 (some centres undefined)
Result :: > 100 µM

====

Test system: SR leukemia
Assay method text: NCI tumour cell line growth inhibition, 48 h
Value kind: TGI

[
  {
    "Compound": "Cc1ccc(C(=O)N/N=C(\\N=Nc2ccccc2[N+](=O)[O-])c2ccc(N(C)C)cc2)cc1",
    "TGI": "> 100 µM"
  },
  {
    "Compound": "CC[C@@]12N=C(N(C)C)C[C@]1(O)ON=C2C",
    "TGI": "> 100 µM"
  }
]

Let us move to another entry and its TGI.
Query :: Request - read-out TGI | tested on SR leukemia | compound "O=C(O)c1cccnc1"
Result :: > 100 µM

====

System: HOP-92 NSCLC
Assay method text: NCI tumour cell line growth inhibition, 48 h
Assign Satisfied to entries whose TGI meets or exceeds 20 µM; assign Not satisfied to the rest.

Recorded results for 6 compounds are shown here.
[
  {
    "Compound": "NC12Oc3cc(O)cc(O)c3C1(c1ccc(Cl)cc1)c1c(O)cc(O)cc1O2 (stereo not drawn)",
    "Assigned category": "Satisfied"
  },
  {
    "Compound": "CCCNC(=S)/N=C/c1c(O)c2ccccc2[nH]c1=O",
    "Assigned category": "Satisfied"
  },
  {
    "Compound": "O=C1NN=C2C=C(c3ccc(Cl)cc3)CC(c3cccc(Cl)c3)C12 (stereo not drawn)",
    "Assigned category": "Satisfied"
  },
  {
    "Compound": "O=C(c1ccc(Cl)cc1)c1cnc(Nc2ccccc2Cl)s1",
    "Assigned category": "Satisfied"
  },
  {
    "Compound": "CCOC(=O)C1=C(N)Oc2ccc(Br)cc2C1C(C#N)C(=O)OCC (stereo not drawn)",
    "Assigned category": "Satisfied"
  },
  {
    "Compound": "CC(=O)Nc1ccc(-c2nc3ccccc3s2)cc1",
    "Assigned category": "Satisfied"
  }
]

Query :: Does "O=C(NCCCN(CCCCN(CCCNC(=O)C(F)(F)F)CCCc1ccccc1)CCCc1ccccc1)C(F)(F)F" have a reported TGI of at least 20 µM?
Result :: Not satisfied

Query :: Likewise for Cc1cccc(C(C)C)c1NC(=O)CC1Sc2ccccc2NC1=O (stereo not drawn) ?
Result :: Satisfied

Query :: Likewise for "Cc1c(O)c(C)c2c(C)cn(C(=O)C(C)(C)C)c2c1C" ?
Result :: Not satisfied

Query :: Can you handle "CC(C)=CCc1c(O)ccc2ccc(=O)oc12" next?
Result :: Satisfied

Query :: Queued: "CCCCCCNC(=O)c1nc(-c2ccccc2)oc1Cc1ccc(OP(=O)(O)O)cc1"
Result :: Satisfied

Query :: Same lookup for "NCCCNCCCCNCCCN" , please.
Result :: Not satisfied

Query :: COc1ccc(OC)c(C2Cc3cnc4nc(N)nc(N)c4c3C2)c1 (stereo not drawn) , same question.
Result :: Satisfied

Query :: Same question, "COc1ccc2[nH]cc(-c3nc(-c4c[nH]c5ncccc45)cs3)c2c1" this time
Result :: Not satisfied

Query :: What would you report for "CCN1CCN=c2c3cc(OC)ccc3n3cnc4ccc1c2c43" ?
Result :: Not satisfied

Query :: What do we get for COc1ccc(N2C(=O)CS(=O)(=O)C2c2cccc(Oc3ccccc3)c2)cc1 (stereo not drawn) ?
Result :: Satisfied

Query :: What would you report for "CC#C[P+](c1ccccc1)(c1ccccc1)c1ccccc1" ?
Result :: Not satisfied
